- Tested on: WaGa
- Assay Explanation: qHTS assay to identify novel small-molecules to repurpose for Merkel cell carcinoma treatment (AID 1296009); further: nearly all actives have a fitted effect of over 60% in size
- Condition Description: MCC and control cell lines, CellTiter-Glo viability, 72 h; series mostly up to 46 µM
- Excerpt: MCC is a rare and aggressive neuroendocrine skin cancer with limited treatment options. Approximately 80% of MCCs have the Merkel cell polyomavirus (MCPyV) DNA integrated into the host genome (virus-positive: VP-MCC) and viral oncogenes drive oncogenesis. The remaining MCCs are virus-negative (VN-MCC) and are caused by UV mutagenesis. […] Using cell viability as a readout (CellTiter-Glo assay) we found both overlapping and distinct drugs that can be repurposed for the treatment of VP-MCC and VN-MCC. […]
Inconclusive results are not listed. Activity calls are given as the source filed them. The call rests on the fitted dose curve; in most records, active means well fitted inhibition curve with a large enough effect; inconclusive means small, poorly fitted or top-dose-only effect; inactive means flat fitted curve, though single readings scatter.
Log the outcome using a class from active, inactive

Record excerpt, results attached:
| Compound | Class |
| --- | --- |
| CCC(=O)O[C@]1(C(=O)CO)CC[C@H]2[C@@H]3CCC4=CC(=O)CC[C@]4(C)[C@@H]3CC[C@@]21C | inactive |
| NC(=O)[C@@H](CCC(F)(F)F)N(Cc1ccc(-c2ncon2)cc1F)S(=O)(=O)c1ccc(Cl)cc1 | inactive |
| O=C(O)[C@H]1O[C@H](Oc2cc3oc(-c4ccccc4)cc(=O)c3c(O)c2O)[C@H](O)[C@@H](O)[C@H]1O | inactive |
| COC[C@@H](c1ccc(C(F)(F)F)cc1)N1CCN(C2(C)CCN(C(=O)c3c(C)ncnc3C)CC2)C[C@H]1C | inactive |

For this compound, state the assay outcome: Cc1ccc([C@@H]2O[C@H](CO)[C@@H](O)[C@H](O)[C@@H]2O)cc1Cc1ccc(-c2ccc(F)cc2)s1
inactive

Same again, this time with O=C1c2c(O)cc(O)cc2O[C@H](c2cc(O)c(O)c(O)c2)[C@H]1O
active

Same again, this time with O=C1NC(=O)C(=Cc2cccc(C(F)(F)F)c2)S1
inactive

Same again, this time with C[C@]12CC[C@@H]3c4ccc(O)cc4C[C@@H](CCCCCCCCCS(=O)CCCC(F)(F)C(F)(F)F)[C@H]3[C@H]1CC[C@H]2O (stereo not given in full)
inactive

Same again, this time with CCOC(=O)C1=C(N)Oc2ccc(Br)cc2C1C(C#N)C(=O)OCC (stereo not given)
inactive

Same again, this time with O=C(O)c1cc(O)c2c(c1)C(=O)c1cccc(O)c1C2=O
inactive

Same again, this time with CC(=NNC(=S)N1CCC1)c1ccccn1
active

Same again, this time with CC1(C)Cc2c(sc(NC(=S)NC(=O)c3ccccc3)c2C(=O)O)CO1
inactive

----------
- System: UISO
- Assay Explanation: qHTS assay to identify novel small-molecules to repurpose for Merkel cell carcinoma treatment (AID 1296009); further: nearly all actives have a fitted effect of over 60% in size
- Condition Description: MCC and control cell lines, CellTiter-Glo viability, 72 h; series mostly up to 46 µM
Records with an inconclusive call do not appear. Calls of active or inactive are those of the source. The call rests on the fitted dose curve; in most records, active means well fitted inhibition curve with a large enough effect; inconclusive means small, poorly fitted or top-dose-only effect; inactive means flat fitted curve, though single readings scatter.
Log the outcome using a class from 1 (active), 0 (inactive)

| Molecule Smiles | Class |
| --- | --- |
| CN(C)c1cc(NC(=O)CNC(C)(C)C)c(O)c2c1C[C@@H]1C[C@H]3[C@H](N(C)C)C(=O)C(C(N)=O)=C(O)[C@@]3(O)C(=O)C1=C2O | 0 |
| COc1ccccc1N1CCN(CCCNc2cc(=O)n(C)c(=O)n2C)CC1 | 0 |
| C[C@@H]1CCN(C(=O)CC#N)C[C@H]1N(C)c1ncnc2[nH]ccc12 | 0 |
| c1ccc2c(Cc3c[nH]c4ccccc34)c[nH]c2c1 | 1 |

Now turn to the next molecule.
For this molecule, state the assay outcome: Cc1cc(OCCCc2c(C(=O)O)n(Cc3cccnc3)c3c(-c4c(COc5ccc(N6CCN([S+](C)(=O)[O-])CC6)cc5)nn(C)c4C)cccc23)cc(C)c1Cl
0

----------
- Test system: HeLa
- Assay Explanation: Primary qHTS to identify gynecologic anti-cancer compounds using libraries of approved drugs and bioactive compounds (AID 1345084); further: nearly all actives have a fitted effect of over 55% in size
- Condition Description: Gynecologic cancer cell panel viability, ATPlite luminescence, 48 h; series mostly up to 57.5 µM
Records with an inconclusive call do not appear. Active and inactive are the calls of the source. Calls come from the whole dose curve; as a rule, active = well fitted cell-killing curve with a large enough effect; inconclusive = small, poorly fitted or top-dose-only effect, or effect the other way; inactive = flat fitted curve, though single readings scatter.
Log the outcome using a class from active, inactive

| Compound | Subject Of Test | Class |
| --- | --- | --- |
| CS(=O)(=O)N(Cc1ccco1)CC(O)Cn1c2ccccc2c2ccccc21 (stereo not given) | HeLa | inactive |

For this compound, state the assay outcome: O=C1NC(=O)C(c2ccccc2)(c2ccccc2)N1
inactive

Same again, this time with COc1ccc2c(Oc3ccc(NC(=O)c4c(C)n(CC(C)(C)O)n(-c5ccccc5)c4=O)cc3F)ccnc2c1
inactive

Same again, this time with CC(C)n1nc(-c2ccc3oc(N)nc3c2)c2c(N)ncnc21
active

Same again, this time with CN1CCN(CCOc2cc(OC3CCOCC3)c3c(Nc4c(Cl)ccc5c4OCO5)ncnc3c2)CC1
inactive

Same again, this time with CCn1c(C(=O)N(C2CC2)C2CC2)cc2c3c(ncn3C)c(Nc3cc(C)n(C)n3)nc21
inactive

Same again, this time with O=C(NCCN1CCOCC1)c1ccc(Cl)cc1
inactive

Same again, this time with COC[C@@H](c1ccc(C(F)(F)F)cc1)N1CCN(C2(C)CCN(C(=O)c3c(C)ncnc3C)CC2)C[C@H]1C
inactive

Same again, this time with CNC1CCC(N(Cc2cccc(-c3ccncc3)c2)C(=O)c2sc3c(F)ccc(F)c3c2Cl)CC1 (stereo not given)
inactive

Same again, this time with OC[C@@H](O)[C@H](O)[C@H](O)[C@@H](O)CO
inactive

----------
- Assay Explanation: qHTS of pediatric cancer cell lines to identify multiple opportunities for drug repurposing: Primary screen for SK-N-MC cells (AID 1347093); further: potency means the concentration at half of the fitted maximal effect
- Condition Description: SK-N-MC viability, CellTiter-Glo luminescence, 48 h; series mostly up to 46 µM
Records with an inconclusive call do not appear. The source made the active and inactive calls. The call rests on the fitted dose curve; in most records, active means well fitted cell-killing curve with a large enough effect; inconclusive means small, poorly fitted or top-dose-only effect; inactive means no such curve, though single readings can be large or run the other way.
Quantity Name: Potency

The cases that follow already have their Potency on record.
| Molecule | Potency |
| --- | --- |
| O=C(O)CCC1CCC(c2cc(F)ccc2F)(S(=O)(=O)c2ccc(Cl)cc2)CC1 (centres undefined) | 0.0662 µM (active) |
| CC(C)C(=O)Oc1ccc(CO)cc1[C@H](CCN(C(C)C)C(C)C)c1ccccc1 | inactive |
| O=C(N[C@@H](c1ccccc1)[C@@H]1CCCCN1)c1cccc(C(F)(F)F)c1Cl | 20.9 µM (active) |
| CCC(=O)O[C@]1(C(=O)CO)CC[C@H]2[C@@H]3CCC4=CC(=O)CC[C@]4(C)[C@@H]3CC[C@@]21C | inactive |
| COCCOc1nc(-c2ccc(Cl)c(Cl)c2)n(-c2ccc(NC(=O)CCl)cc2)n1 | 4.69 µM (active) |

Consider the molecule shown here: O=C1NC(=O)C(=Cc2ccc3nccnc3c2)S1 What is its recorded Potency?
2.29 µM (active)

----------
- Assay Explanation: Quantitative High-Throughput drug screen in 47 multiple myeloma cell lines against the NCATS MIPE library collection: XG6_PLB cell viability assay (AID 1919865); further: nearly all actives have a fitted effect of over 40% in size
- Condition Description: XG6 myeloma viability, CellTiter-Glo ATP luminescence, 48 h; series mostly up to 45.8 µM
Results filed as inconclusive are left out. Calls of active or inactive are those of the source. The call rests on the fitted dose curve; in most records, active means well fitted cell-killing curve with a large enough effect; inconclusive means small, poorly fitted or top-dose-only effect, or effect the other way; inactive means no such curve, though single readings can be large or run the other way.
Log the outcome using a class from active, inactive

Record excerpt, results attached:
| Molecule Smiles | Class |
| --- | --- |
| CC[C@H]1OC(=O)[C@H](C)C(=O)[C@H](C)[C@@H](O[C@H]2O[C@H](C)C[C@H](N(C)C)[C@@H]2O)[C@](C)(OC)C[C@@H](C)C(=O)[C@H](C)[C@H]2N(CCCCn3cnc(-c4cccnc4)c3)C(=O)O[C@]12C | active |
| CC=C(C)C(=O)O[C@H]1C(C)=C[C@]23C(=O)[C@@H](C=C(CO)[C@@H](O)[C@]12O)[C@H]1[C@@H](C[C@H]3C)C1(C)C | active |
| Cc1cc(OCCCc2c(C(=O)O)n(Cc3cccnc3)c3c(-c4c(COc5ccc(N6CCN([S+](C)(=O)[O-])CC6)cc5)nn(C)c4C)cccc23)cc(C)c1Cl | active |
| CCOc1ccc(Nc2nc(-c3c(C)nc4ccccn34)cs2)cc1 | inactive |
| CN1C[C@H]2c3ccccc3Oc3ccc(Cl)cc3[C@@H]2C1 | inactive |

For this compound, state the assay outcome: Cc1c(O)cccc1C(=O)N[C@@H](CSc1ccccc1)[C@H](O)CN1C[C@H]2CCCC[C@@H]2C[C@@H]1C(=O)NC(C)(C)C
active

Same again, this time with COC[C@@H](c1ccc(C(F)(F)F)cc1)N1CCN(C2(C)CCN(C(=O)c3c(C)ncnc3C)CC2)C[C@H]1C
active

----------
- Assay Explanation: Quantitative High-Throughput drug screen in 47 multiple myeloma cell lines against the NCATS MIPE library collection: KMS28PE_JCRB cell viability assay (AID 1918983); further: nearly all actives have a fitted effect of over 35% in size
- Condition Description: KMS28PE multiple myeloma viability, CellTiter-Glo ATP, 48 h; series mostly up to 45.8 µM
Inconclusive results are not listed. Active and inactive are the calls of the source. Calls follow the shape of the dose curve; as a rule, active = well fitted cell-killing curve with a large enough effect; inconclusive = small, poorly fitted or top-dose-only effect, or effect the other way; inactive = no such curve, though single readings can be large or run the other way.
Log the outcome using a class from active, inactive

Record excerpt, results attached:
| Compound | Class |
| --- | --- |
| COCCOC(=O)C1=C(C)NC2=C(C(=O)CC(c3ccccc3OC)C2)C1c1cccc(O)c1 (centres undefined) | active |
| CC(C)=CC[C@@H](O)C1=CC(=O)c2c(O)ccc(O)c2C1=O | active |
| O=C(O)C=Cc1ccc(O)c(O)c1 | active |
| O=C(CCCCCCC(=O)Nc1ccccc1)NO | active |
| CCN(CC)CCOc1ccc(C(=C(Cl)c2ccccc2)c2ccccc2)cc1 | inactive |

For this compound, state the assay outcome: CC(=O)Nc1ccc([C@H](C)C(=O)Nc2ncc(C(C)C)s2)cc1
active

Same again, this time with COc1cc(Nc2ncc(F)c(Nc3ccc4c(n3)NC(=O)C(C)(C)O4)n2)cc(OC)c1OC
active

Same again, this time with NC(=O)c1ccc2nc(-c3ccc(Oc4ccc(Cl)cc4)cc3)[nH]c2c1
inactive
